Task for the reader: assign each of the following binders its reported kon.
Molecular target: T1, Canine IL-31RA ECD-10His (canine, biotin-labeled in the Octet assay (site not stated))
T1 construct: The ELISA and Octet protocols say only 'IL-31RA' or 'canine IL-31RA'; also called cIL-31RA; canine IL-31 receptor alpha extracellular domain, HIS-tagged
T1 chain: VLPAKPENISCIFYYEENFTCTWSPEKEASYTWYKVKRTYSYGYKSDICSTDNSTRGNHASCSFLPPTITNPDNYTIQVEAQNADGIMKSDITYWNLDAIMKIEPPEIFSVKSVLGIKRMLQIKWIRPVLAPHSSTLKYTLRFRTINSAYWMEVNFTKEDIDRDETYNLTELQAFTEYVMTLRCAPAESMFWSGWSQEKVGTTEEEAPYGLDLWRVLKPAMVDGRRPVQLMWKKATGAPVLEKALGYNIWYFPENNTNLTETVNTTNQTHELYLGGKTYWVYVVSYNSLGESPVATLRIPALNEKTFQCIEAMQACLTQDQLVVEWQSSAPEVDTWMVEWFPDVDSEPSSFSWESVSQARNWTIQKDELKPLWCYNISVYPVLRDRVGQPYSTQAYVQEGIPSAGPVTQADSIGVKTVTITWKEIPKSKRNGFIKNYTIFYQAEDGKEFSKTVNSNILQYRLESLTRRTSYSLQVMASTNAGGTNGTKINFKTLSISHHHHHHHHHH
Assay: BLI (Octet HTX), biotin-labeled canine IL-31RA on SA biosensors, 1:1 fit

Item under review: 100H8 (antibody, V domains shown, Mouse monoclonal antibody from a hybridoma; also called mouse mAb 100H8) VH: EVQLQQSGPELVKPGASVKIPCKASGYTFTDYNMDWVKQSHGKSLEWIGHINPNNGGILYNQKFKGKATLTVDRSSNTAYMELRSLTSEDTAVYFCARWAPLVRQPYWYFDVWGTGTTVTVSS VL: DIKMTQSPSSIFASLGERVTITCKASQDINSYLNWFQQKPGKSPKTLIYRADRLVDGVPSRFSGSGSGQDYSLTISSLEYEDMGIYYCLQYDEFPLTFGAGTKLELN . Reported kon? 788000 M⁻¹ s⁻¹

Item under review: 224G3 (antibody, V domains shown, Mouse monoclonal antibody from a hybridoma; also called mouse mAb 224G3) VH: EVQLVESGGDLVKPGGSLKLSCAASGFTFSSYGMSWVRQTPDKRLEWVATISNGGSYTYYPDSVKGRFTISRDNAKNTLYMQMSSLKSEDTAMYYCARNEPPDYWGQGTSVTVSS VL: QIVLTQSPAIMSASLGERVTMTCTASSSVGSSYLHWYQQKPGSSPKLWIYDTSNLASGVPVRFSGSGSGTSYSLTISSMEAEDAATYYCHQYHRSPYTFGGGTKLEIK . Reported kon? 1.12e+06 M⁻¹ s⁻¹

Item under review: 209G5 (antibody, V domains shown, Mouse monoclonal antibody from a hybridoma; also called mouse mAb 209G5) VH: EVQLQQSVAELVRPGASVKLSCTASGFNIKNTYMHWVKERPEQGLEWIGRIDPANGNSKYAPKFQGKATITTDTSSNTAYLQLSSLTSEDTAIYYCARYYYVSSHFDVWGTGTTVTVSS VL: SIVMTQTPKFLLVSAGDRVTITCKASQSVTNDVTWYQQKPGQSPKLLIYYASNRYTGVPDRFTGSGYGTDFTFTISTVQAEDLAVYFCQQDYSSPFTFGSGTKLEIK . Reported kon? 370000 M⁻¹ s⁻¹
